- Study Target: T1, cynomolgus PD-1 expressed on cells (cynomolgus monkey, UniProt B0LAJ3 25-288)
- T1 construct: also called CHO-S Cyno-PD-1; 293:cyPD1
- T1 sequence (B0LAJ3 entry or part of it limits assumed): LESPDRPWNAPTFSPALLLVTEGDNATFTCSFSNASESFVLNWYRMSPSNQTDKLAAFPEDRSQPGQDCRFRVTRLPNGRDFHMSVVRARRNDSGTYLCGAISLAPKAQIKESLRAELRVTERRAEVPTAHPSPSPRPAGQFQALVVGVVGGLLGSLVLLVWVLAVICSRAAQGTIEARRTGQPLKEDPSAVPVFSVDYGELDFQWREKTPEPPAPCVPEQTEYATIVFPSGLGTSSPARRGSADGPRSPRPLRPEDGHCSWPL
- Protocol Summary: flow cytometry, CHO-S Cyno-PD-1
Measurement Name: Max MFI (MFI)
Give the number; MFI is assumed, so skip it.

{"Binder": "XVT458-z2-m6 (antibody, V domains shown, IgG format; also called z2_XVT458m6) VH: QVQLVQSGAEVKKPGASVKVSCKASGYTFTNFYIHWVRQAPGQGLEWMGSIYPNYGITAYNQKFKDRVTMTVDTSTSTAYMELRSLRSDDTAVYYCARGYSYAMDYWGQGTTVTVSS VL: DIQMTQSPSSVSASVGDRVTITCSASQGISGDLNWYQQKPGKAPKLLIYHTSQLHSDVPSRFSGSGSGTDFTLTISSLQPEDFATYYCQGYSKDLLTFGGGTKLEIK", "Unit Symbol": "MFI", "Value Measured": 59}
{"Binder": "XVT458-z2-m3 (antibody, V domains shown, IgG format; also called z2_XVT458m3) VH: QVQLVQSGAEVKKPGASVKVSCKASGYTFTNFYIHWVRQAPGQGLEWMGRIYPNYGITAYNQKFKDRVTMTVDTSTSTAYMELRSLRSDDTAVYYCARGYSYAMDYWGQGTTVTVSS VL: DIQMTQSPSSVSASVGDRVTITCSASQGISGDLNWYQQKPGKAPKLLIYHTSQRHSDVPSRFSGSGSGTDFTLTISSLQPEDFATYYCQGYSKDLLTFGGGTKLEIK", "Unit Symbol": "MFI", "Value Measured": 124}

Consider the additional binder presented here.
GET /values?readout=Max MFI&item= XVT458-z2-m4 (antibody, V domains shown, IgG format; also called z2_XVT458m4) VH: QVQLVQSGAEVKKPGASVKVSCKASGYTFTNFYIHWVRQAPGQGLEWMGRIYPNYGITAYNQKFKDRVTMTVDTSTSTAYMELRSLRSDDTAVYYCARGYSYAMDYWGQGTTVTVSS VL: DIQMTQSPSSVSASVGDRVTITCSASQGISGDLNWYQQKPGKAPKLLIYHTSSRHSGVPSRFSGSGSGTDFTLTISSLQPEDFATYYCQGYSKDLLTFGGGTKLEIK 258
